Target: GABAA central benzodiazepine receptor
Assay: Benzodiazepine Binding Assay ((3H)-flunitrazepam, rat whole brain except cerebellum)
Details: read-out: BZ binding assay (IC50); 1 nM (3H)-flunitrazepam, 60 minutes at 25° C., pH 7.4; with or without 30 μM GABA
Items are presented alongside their recorded IC50.

>  <Compound>
CC(C)N1CCN(c2cc(N3CCN(C(C)C)CC3)c3[nH]cc4c(=O)n(-c5ccccc5)nc-4c3c2)CC1 [Compound 58b]

>  <Target Or Test System>
GABAA central benzodiazepine receptor

>  <IC50>
1 to 1000 nM

$$$$

Now look at this entry.
Problem: GET /values?readout=IC50&item= O=c1c2c[nH]c3c(N4CCOCC4)cc(N4CCOCC4)cc3c-2nn1-c1ccccc1 [Compound 58a]
Solution: 1 to 1000 nM
